Where do these numbers come from? They come from ChEMBL document CHEMBL5352426.

Recorded measurements of log10 of IC50 at 72 h, one per entry
test: Antiproliferative activity against human L02 cells assessed as inhibition of cell proliferation incubated for 72 hrs by SRB assay; type: toxicity, cell-based
// stored as log10 of IC50 at 72 h expressed in µM

test.smiles	numeric.result
COc1cc2c(OCCCc3cn([C@H]4O[C@@H](C)[C@H](OC(C)=O)[C@@H](OC(C)=O)[C@H]4OC(C)=O)nn3)c3c(c(-c4ccc5c(c4)OCO5)c2cc1OC)C(=O)OC3	-0.31

--- query ---
Reported log10 of IC50 at 72 h for COc1cc2c(OCc3cn([C@H]4O[C@@H](C)[C@H](OC(C)=O)[C@@H](OC(C)=O)[C@H]4OC(C)=O)nn3)c3c(c(-c4ccc5c(c4)OCO5)c2cc1OC)C(=O)OC3 : what is it?
0.09

====

system: CFPAC-1; assay: Antiproliferative activity against human CFPAC-1 cells assessed as inhibition of cell proliferation incubated for 72 hrs by SRB assay; format: functional, cell-based; details: CFPAC-1, 72 h
outcome.measure: IC50 (nM)
Form entry: value (nM) — number only.

compound	IC50 (nM)
COc1cc2c(OCCCc3cn([C@H]4O[C@@H](C)[C@H](OC(C)=O)[C@@H](OC(C)=O)[C@H]4OC(C)=O)nn3)c3c(c(-c4ccc5c(c4)OCO5)c2cc1OC)C(=O)OC3	7
COc1cc2c(OCc3cn([C@H]4O[C@@H](C)[C@H](OC(C)=O)[C@@H](OC(C)=O)[C@H]4OC(C)=O)nn3)c3c(c(-c4ccc5c(c4)OCO5)c2cc1OC)C(=O)OC3	97
COc1cc2c(NC(=O)OC(C)(C)C)c3c(c(-c4ccc5c(c4)OCO5)c2cc1OC)C(=O)OC3	37
COc1cc2c(O)c3c(c(-c4ccc5c(c4)OCO5)c2cc1OC)C(=O)OC3 [DIPHYLLIN]	208
COc1cc2c(OCCOCc3cn([C@H]4O[C@@H](C)[C@H](OC(C)=O)[C@@H](OC(C)=O)[C@H]4OC(C)=O)nn3)c3c(c(-c4ccc5c(c4)OCO5)c2cc1OC)C(=O)OC3	50

Kindly consider the entry below.
// lookup IC50 for COc1cc2c(N)c3c(c(-c4ccc5c(c4)OCO5)c2cc1OC)C(=O)OC3
3

====

experiment: Metabolic stability in mouse liver microsome assessed as half life; assay type: ADME; conditions: liver microsomes
outcome.measure: half-life

Solved cases below.
test.smiles	half-life
COc1cc2c(N)c3c(c(-c4ccc5c(c4)OCO5)c2cc1OC)C(=O)OC3	28.5 min
COc1cc2c(O)c3c(c(-c4ccc5c(c4)OCO5)c2cc1OC)C(=O)OC3	< 5 min

// next item, half-life requested
Need half-life, item COc1cc2c(OCCCc3cn([C@H]4O[C@@H](C)[C@H](OC(C)=O)[C@@H](OC(C)=O)[C@H]4OC(C)=O)nn3)c3c(c(-c4ccc5c(c4)OCO5)c2cc1OC)C(=O)OC3
< 5 min

====

assay: Metabolic stability in mouse liver microsome assessed as intrinsic clearance; assay type: ADME; settings: liver microsomes, read-out: CLH
outcome.measure: microsomal CLint

As a guide, the following entries are already answered.
test.smiles	result
COc1cc2c(O)c3c(c(-c4ccc5c(c4)OCO5)c2cc1OC)C(=O)OC3	> 277 µL/min/mg
COc1cc2c(OCCCc3cn([C@H]4O[C@@H](C)[C@H](OC(C)=O)[C@@H](OC(C)=O)[C@H]4OC(C)=O)nn3)c3c(c(-c4ccc5c(c4)OCO5)c2cc1OC)C(=O)OC3	> 277 µL/min/mg

# context switch: different compound, same microsomal CLint
Sample COc1cc2c(N)c3c(c(-c4ccc5c(c4)OCO5)c2cc1OC)C(=O)OC3 — what was its microsomal CLint?
48.7 µL/min/mg
